pIC50: −log10 of the molar value.
Target or system UniProt P28845; recorded quantity pIC50.
metric_name: pIC50

>  <compound>
CC1(C)OC(NC(CCO)c2cccc(F)c2F)=NS(=O)(=O)C1c1ccc(-c2ccccc2)cc1 (stereo not shown) [Example 82]

>  <metric_name>
pIC50

>  <experimental_value>
7.64

$$$$
>  <compound>
CN1CCN(c2ccc(-c3ccc(C4C(C)(C)OC(N[C@@H](CCO)c5ccccc5F)=NS4(=O)=O)cc3)cn2)CC1 (stereo partly shown) [Example 145]

>  <metric_name>
pIC50

>  <experimental_value>
8.30

$$$$
>  <compound>
CC1(C)OC(N[C@@H](CCO)c2ccccc2F)=NS(=O)(=O)C1c1ccc(N2CCN(C(C)(C)C)CC2)cc1 (stereo partly shown) [Example 138]

>  <metric_name>
pIC50

>  <experimental_value>
7.21

$$$$
>  <compound>
CC(C)(C)c1ccc(C2C(C)(C)OC(N[C@@H](CCO)c3ccccc3F)=NS2(=O)=O)cc1 (single isomer, unassigned) [Example 85]

>  <metric_name>
pIC50

>  <experimental_value>
8.05

$$$$

====

pIC50: −log10 of the molar value.
Target or system human 11β-HSD1 (Homo sapiens); recorded quantity pIC50.

>  <compound>
CC1(C)OC(N[C@@H](CCO)c2ccccc2)=NS(=O)(=O)C1c1cccc(Cl)c1 (stereo partly drawn)

>  <pIC50>
7.68

$$$$
>  <compound>
CC1(C)OC(N[C@@H](CCO)c2ccccc2F)=NS(=O)(=O)C1c1ccc(C(F)(F)F)cc1 (stereo partly drawn)

>  <pIC50>
8.22

$$$$
>  <compound>
CC1(C)OC(NC2CCCCC2)=NS(=O)(=O)C1c1ccc(-c2ccccc2)cc1 (stereo not drawn)

>  <pIC50>
5.90

$$$$
>  <compound>
CC1(C)OC(N[C@@H](CCO)c2ccccc2)=NS(=O)(=O)C1(C)c1cccc(-c2cncnc2)c1 (stereo partly drawn)

>  <pIC50>
7.82

$$$$
>  <compound>
CC(C)(C)c1ccc(C2(C)C(C)(C)OC(N[C@@H](CCO)c3ccccc3)=NS2(=O)=O)cc1 (stereo partly drawn)

>  <pIC50>
7.33

$$$$
>  <compound>
CN(CCCc1ccc(C2C(C)(C)OC(N[C@@H](CCO)c3ccccc3F)=NS2(=O)=O)cc1)CC(F)F (stereo partly drawn)

>  <pIC50>
8.30

$$$$
>  <compound>
C[C@H](NC1=NS(=O)(=O)C(c2ccc(N3CCN(C)CC3)cc2)C(C)(C)O1)c1ccccc1F (stereo partly drawn)

>  <pIC50>
6.61

$$$$
>  <compound>
CC1(C)OC(N[C@@H](CCO)c2ccccc2F)=NS(=O)(=O)C1c1ccc(-c2ccc(F)cc2)cc1 (stereo partly drawn)

>  <pIC50>
7.68

$$$$
>  <compound>
CC1(C)OC(N[C@@H](CCO)c2ccccc2)=NS(=O)(=O)C1c1ccccc1 (stereo partly drawn) [Example 2]

>  <pIC50>
7.77

$$$$
>  <compound>
CC1(C)OC(N[C@@H](CCO)c2ccccc2)=NS(=O)(=O)C1c1ccc(OCc2ccccc2)cc1 (stereo partly drawn)

>  <pIC50>
7.85

$$$$
>  <compound>
CC1(C)OC(N[C@@H](CCO)c2ccccc2F)=NS(=O)(=O)C1c1ccc(N2CCOCC2)cc1 (stereo partly drawn)

>  <pIC50>
7.48

$$$$
>  <compound>
C[C@H](NC1=NS(=O)(=O)C(c2ccc(C(C)(C)O)cc2)C(C)(C)O1)c1ccccc1F (stereo partly drawn)

>  <pIC50>
7.28

$$$$
>  <compound>
C[C@H](NC1=NS(=O)(=O)C(c2ccc(-c3cccc(C(N)=O)c3)nc2)C(C)(C)O1)c1ccccc1F (stereo partly drawn) [Example 180]

>  <pIC50>
8.00

$$$$
>  <compound>
Cc1ccccc1-c1ccc(C2C(C)(C)OC(N[C@@H](CCO)c3ccccc3F)=NS2(=O)=O)cc1 (stereo partly drawn)

>  <pIC50>
7.92

$$$$
>  <compound>
C[C@H](NC1=NS(=O)(=O)C(c2cccc(Br)c2)C(C)(C)O1)c1ccccc1F (stereo partly drawn)

>  <pIC50>
7.89

$$$$
>  <compound>
CC1(C)OC(N[C@@H](CCO)c2cccc(Cl)c2)=NS(=O)(=O)C1c1ccc(-c2ccccc2)cc1 (stereo partly drawn)

>  <pIC50>
7.68

$$$$
>  <compound>
CC1(C)OC(N[C@@H](CCO)c2ccccc2)=NS(=O)(=O)C1c1cccc(-c2cncnc2)c1 (stereo partly drawn)

>  <pIC50>
7.49

$$$$
>  <compound>
Cn1nccc1-c1ccc(C2C(C)(C)OC(N[C@@H](CCO)c3ccccc3F)=NS2(=O)=O)cc1 (stereo partly drawn)

>  <pIC50>
8.15

$$$$
>  <compound>
CC1(C)OC(N[C@@H](CCO)c2ccccc2)=NS(=O)(=O)C1c1cccc(Br)c1 (stereo partly drawn)

>  <pIC50>
7.70

$$$$
>  <compound>
CN1CCC(c2ccc(C3C(C)(C)OC(N[C@@H](CCO)c4ccccc4F)=NS3(=O)=O)cc2)CC1 (stereo partly drawn)

>  <pIC50>
7.49

$$$$
>  <compound>
CC1(C)OC(N[C@@H](CCO)c2ccccc2F)=NS(=O)(=O)[C@@H]1c1ccc(-c2cccc(C(N)=O)c2)cc1

>  <pIC50>
8.52

$$$$
>  <compound>
C[C@H](NC1=NS(=O)(=O)C(c2cccc(C(=O)NCc3ccccn3)c2)C(C)(C)O1)c1ccccc1F (stereo partly drawn)

>  <pIC50>
7.85

$$$$
>  <compound>
CN(C)CCCc1ccc(C2C(C)(C)OC(N[C@@H](CCO)c3ccccc3F)=NS2(=O)=O)cc1 (stereo partly drawn)

>  <pIC50>
7.38

$$$$
>  <compound>
COc1ncc(-c2ccc(C3C(C)(C)OC(N[C@@H](CCO)c4ccccc4F)=NS3(=O)=O)cc2)cn1 (stereo partly drawn)

>  <pIC50>
8.30

$$$$
>  <compound>
CC1(C)OC(N[C@@H](CCO)c2ccccc2F)=NS(=O)(=O)C1c1ccc(-c2cc[nH]n2)cc1 (stereo partly drawn)

>  <pIC50>
8.00

$$$$
>  <compound>
C[C@H](NC1=NS(=O)(=O)C(c2ccc(-c3ccc(C(N)=O)cc3)cc2)C(C)(C)O1)c1ccccc1F (stereo partly drawn)

>  <pIC50>
7.70

$$$$
>  <compound>
CC1(C)OC(N[C@@H](CCO)c2ccccc2)=NS(=O)(=O)C1c1ccccc1 (single isomer, unassigned) [Example 29]

>  <pIC50>
7.64

$$$$
>  <compound>
CC1(C)OC(N[C@@H](CCO)c2ccccc2F)=NS(=O)(=O)C1c1cccc(-c2ccccc2)c1 (stereo partly drawn)

>  <pIC50>
7.82

$$$$
>  <compound>
CN(C)Cc1ccc(-c2ccc(C3C(C)(C)OC(N[C@@H](CCO)c4ccccc4F)=NS3(=O)=O)cc2)cc1 (stereo partly drawn)

>  <pIC50>
7.89

$$$$
>  <compound>
C[C@H](NC1=NS(=O)(=O)C(C)(c2ccc(C(C)(C)C)cc2)C(C)(C)O1)c1ccccc1F (stereo partly drawn)

>  <pIC50>
7.49

$$$$
